Field: pEC50. Provide a value for each of the molecules that follow.
Target: human M1 receptor (hCHRM1) (Homo sapiens, UniProt P11229)
Construct: expressed in transfected cells
Assay: Measurement of M1 receptor positive allosteric modulator (M1PAM) activity (calcium fluorescence, Fluo-4)
Assay type: cell-based
Settings: inflection point of concentration-dependent curve; CHO-K1 cells stably expressing hCHRM1; in presence of acetylcholine at EC20 (final 0.8-1.0 nM); read-out: IP value
Procedure: Measurement of M1 Receptor Positive Allosteric Modulator (M1PAM) Activity The activity of a test compound in the presence of acetylcholine at EC20 concentration (final concentration 0.8-1.0 nM), which affords an action corresponding to about 20% of the maximum activity, was measured as PAM activity. The method is as follows. […]
Give bare numbers, as −log10 of the molar value.

{"Molecule": "COc1c(C(=O)NCC2CCCO2)cc(Cc2ccc(-c3cn(C)nn3)cc2)c(C)c1C (stereo not shown) [Example 6]", "pEC50": 7.64}
{"Molecule": "COc1c(C(=O)N[C@H]2CCC[C@@H]2O)cc(Cc2ccc(-n3cccn3)cc2)c(C)c1C (relative stereo) [Example 2]", "pEC50": 7.02}
{"Molecule": "Cc1c(Cc2ccc(-n3cccn3)nc2)cc(C(=O)N[C@H]2CCCC[C@@H]2O)c(F)c1C [Example 20]", "pEC50": 7.51}

We next turn to a different molecule, shown below.
Query :: Query: pEC50; subject: COc1c(C(=O)N[C@H]2COCC[C@@H]2O)cc(Cc2ccc(-c3ccn(C)n3)nc2)c(C)c1C [Example 31]
Result :: 7.17

====

So I've got a bunch of molecules here, and I need their activity (%) at 10 μM values.
Biological target: human M1 receptor (hCHRM1) (Homo sapiens)
Construct: expressed in transfected cells
Sequence (P11229 1-460): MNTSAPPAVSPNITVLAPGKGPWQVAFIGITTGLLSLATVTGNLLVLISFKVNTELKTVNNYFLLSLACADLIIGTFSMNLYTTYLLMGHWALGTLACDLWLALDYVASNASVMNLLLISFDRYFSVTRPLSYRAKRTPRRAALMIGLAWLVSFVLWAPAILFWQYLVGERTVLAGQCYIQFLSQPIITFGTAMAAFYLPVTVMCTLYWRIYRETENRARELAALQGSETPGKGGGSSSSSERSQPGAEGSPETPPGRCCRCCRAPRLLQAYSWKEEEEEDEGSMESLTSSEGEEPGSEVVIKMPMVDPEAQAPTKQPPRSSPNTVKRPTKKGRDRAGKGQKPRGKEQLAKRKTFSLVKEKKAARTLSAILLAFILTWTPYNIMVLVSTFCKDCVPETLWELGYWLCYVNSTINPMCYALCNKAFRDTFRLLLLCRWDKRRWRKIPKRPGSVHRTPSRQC
Test: Measurement of M1 receptor positive allosteric modulator (M1PAM) activity (calcium fluorescence, Fluo-4)
Assay type: cell-based
Details: test compound 10 μM with acetylcholine at EC20; 100% = 1 μM acetylcholine, 0% = DMSO; CHO-K1 cells expressing hCHRM1
Answers are plain numbers, in %.

{"Molecule": "Cc1c(Cc2ccc(-n3cccn3)nc2)cc(C(=O)N[C@H]2CCC[C@@H]2O)c(F)c1C", "Target system": "human M1 receptor (hCHRM1) (Homo sapiens)", "Unit abbrev": "%", "Numeric result": 93}
{"Molecule": "COc1c(C(=O)N[C@H]2COCC[C@@H]2O)cc(Cc2ccc(-c3cn(C)nn3)cc2)c(C)c1C", "Target system": "human M1 receptor (hCHRM1) (Homo sapiens)", "Unit abbrev": "%", "Numeric result": 102}
{"Molecule": "Cc1c(Cc2ccc(-n3cccn3)cc2)cc(C(=O)N[C@H]2COCC[C@@H]2O)c(F)c1C", "Target system": "human M1 receptor (hCHRM1) (Homo sapiens)", "Unit abbrev": "%", "Numeric result": 103}
{"Molecule": "COc1c(C(=O)N[C@H]2COCC[C@@H]2O)cc(Cc2ccc(-n3cccn3)cc2)c(C)c1C", "Target system": "human M1 receptor (hCHRM1) (Homo sapiens)", "Unit abbrev": "%", "Numeric result": 100}

Batch of 2 molecules: report activity (%) at 10 μM for each.
1. COc1c(C(=O)N[C@H]2CCCC[C@@H]2O)cc(Cc2ccc(-c3ccn(C)n3)nc2)c(C)c1C
2. COc1c(C(=O)N[C@@H]2CCCC[C@H]2O)cc(Cc2ccc(-c3cn(C)nn3)cc2)c(C)c1C (single isomer, unassigned)

Result ::
[96, 97]

Query :: Record request: activity (%) at 10 μM value, item "COc1c(C(=O)N[C@H]2COCC[C@@H]2O)cc(Cc2ccc(-c3ccn(C)n3)nc2)c(C)c1C"
Result :: 97

Data provenance: patent US10548877B2
